// Z-AUC lookup, one value per entry
experiment: qHTS drug screen for cell cycle checkpoint inhibitors in PARPi-resistant BRCA-mutant ovarian cancer cell lines. (AID 1963452); settings: PEO1/OlaR viability, CellTiter-Glo luminescence, 96 h; measured here: PEO1 parental Z-AUC; stronger effect = lower value

compound: CN1C/C=C/CCOc2cccc(c2)-c2ccnc(n2)Nc2cccc(c2)C1
Z-AUC: -1.71
--
compound: CC(C)C(N)C(=O)OCC(CO)OCn1cnc2c(=O)[nH]c(N)nc21 (stereo not given)
Z-AUC: 1.06
--
compound: COc1ccc(-c2oc3ncnc(N)c3c2-c2ccc(NC(=O)Nc3cc(C(F)(F)F)ccc3F)cc2)cc1
Z-AUC: 0.865
--
compound: CC(C)N(CCCNC(=O)Nc1ccc(C(C)(C)C)cc1)C[C@H]1O[C@@H](n2cc(Br)c3c(N)ncnc32)[C@H](O)[C@@H]1O
Z-AUC: 0.00626
--
compound: O=c1sn(-c2cccc3ccccc23)c(=O)n1Cc1ccccc1
Z-AUC: 0.135

* * *

target: Cytochrome P450 1A2 (Homo sapiens); assay: p450-cyp1a2 (AID 410); settings: recombinant CYP1A2, luciferin-ME demethylation, luminescence; series mostly up to 57 µM
Inconclusive results are not listed. Active and inactive are the calls of the source. The call rests on the fitted dose curve.
Outcome codes: 1 = active, 0 = inactive

molecule: C[C@H](N)C(=O)O
target_of_assay: Cytochrome P450 1A2 (Homo sapiens)
assigned_label: 0
//
molecule: OCCNCCCOc1cccc(Cl)c1Cl
target_of_assay: Cytochrome P450 1A2 (Homo sapiens)
assigned_label: 1
//
molecule: Cc1sc(N)c(C(=O)c2cccc(C(F)(F)F)c2)c1C
target_of_assay: Cytochrome P450 1A2 (Homo sapiens)
assigned_label: 1
//
molecule: O=C1CC[C@H](N2C(=O)c3ccccc3C2=O)C(=O)N1
target_of_assay: Cytochrome P450 1A2 (Homo sapiens)
assigned_label: 0
//
molecule: C=CCN1CCN(c2nc3ccccc3nc2C#N)CC1
target_of_assay: Cytochrome P450 1A2 (Homo sapiens)
assigned_label: 1
//
molecule: C1CCC(N=C(NC23CC4CC(CC(C4)C2)C3)N2CCOCC2)CC1
target_of_assay: Cytochrome P450 1A2 (Homo sapiens)
assigned_label: 0
//
molecule: COc1[nH]c2ccc(F)cc2c1C(=O)OCC1CCN(CCNS(C)(=O)=O)CC1
target_of_assay: Cytochrome P450 1A2 (Homo sapiens)
assigned_label: 0
//
molecule: N[C@@H](C(=O)O)c1ccc(C(=O)O)c(O)c1
target_of_assay: Cytochrome P450 1A2 (Homo sapiens)
assigned_label: 0
//
molecule: NC(=NC1C2CC3CC(C2)CC1C3)Nc1ccc(I)cc1 (configuration not stated)
target_of_assay: Cytochrome P450 1A2 (Homo sapiens)
assigned_label: 1
//
molecule: CCCCC(=O)NCCc1c(Cc2ccccc2)[nH]c2ccccc12
target_of_assay: Cytochrome P450 1A2 (Homo sapiens)
assigned_label: 1
//
molecule: O=C(O)c1c2ccccc2cc2ccccc12
target_of_assay: Cytochrome P450 1A2 (Homo sapiens)
assigned_label: 1
//
molecule: N[C@@H](C(=O)O)[C@H](CC(=O)O)c1ccc(Cl)cc1
target_of_assay: Cytochrome P450 1A2 (Homo sapiens)
assigned_label: 0

* * *

test system: Zika virus NS2B-NS3 protease (linked); test: 384 well plate NINDS AMC confirmatory qHTS for Zika virus inhibitors (AID 1347163); settings: Recombinant NS2B-NS3 protease, Ac-VKTGKR-AMC fluorescence; series mostly up to 1 mM; also: nearly all actives have a fitted effect of over 50% in size
Results filed as inconclusive are left out. The source made the active and inactive calls. The call rests on the fitted dose curve; in most records, active means well fitted inhibition curve with a large enough effect; inconclusive means small, poorly fitted or top-dose-only effect; inactive means no such curve, though single readings can be large or run the other way. Positions of bridges follow the written chain, without caps; N, C: chain ends. Non-standard residues stand in square brackets, D forms with d. Residues, ends and D or L forms follow the SMILES beside them. ξ: configuration not given here. *: point of attachment. ξDab(CH2SO3H) = NC(CCNCS(=O)(=O)O)C(=O)O; Octanoyl(6-Me) = CCC(C)CCCCC(=O)*; Dab = NCC[CH](N)C(=O)O
Outcome codes: active, inactive

compound: CC[C@H](C)[C@H]1O[C@]2(CC[C@@H]1C)C[C@@H]1C[C@@H](C/C=C(\C)[C@@H](O[C@H]3C[C@H](OC)[C@@H](O[C@H]4C[C@H](OC)[C@@H](O)[C@H](C)O4)[C@H](C)O3)[C@@H](C)/C=C/C=C3\CO[C@@H]4[C@H](O)C(C)=C[C@@H](C(=O)O1)[C@]34O)O2
assigned_label: inactive

compound: CCOC(=O)c1ccc(N2C(=O)c3n[nH]c(-c4cccs4)c3C2c2ccc(C(C)(C)C)cc2)cc1 (stereo not drawn)
assigned_label: inactive

compound: CCOC(=O)c1cccc(NC(=O)CSc2ncc3c(n2)-c2ccc(Cl)cc2N(Cc2ccccc2)S3(=O)=O)c1
assigned_label: inactive

compound: O=C(O)CSc1nc2ccc(NC(=O)COc3ccc(Cl)cc3)cc2s1
assigned_label: active

compound: CCC(C)CCCCC(=O)NC(CCNCS(=O)(=O)O)C(=O)NC(C(=O)NC(CCNCS(=O)(=O)O)C(=O)NC1CCNC(=O)C(C(C)O)NC(=O)C(CCNCS(=O)(=O)O)NC(=O)C(CCNCS(=O)(=O)O)NC(=O)C(CC(C)C)NC(=O)C(CC(C)C)NC(=O)C(CCNCS(=O)(=O)O)NC1=O)C(C)O (stereo not drawn) ({Octanoyl(6-Me)}-[ξDab(CH2SO3H)]T[ξDab(CH2SO3H)][Dab][ξDab(CH2SO3H)]LL[ξDab(CH2SO3H)][ξDab(CH2SO3H)]T; lactam 4-C; configuration not given here)
assigned_label: active

compound: CC1(C(=O)O)NCCc2cc(O)c(O)cc21 (stereo not drawn)
assigned_label: inactive

compound: CC(C)(C)c1ccc(S(=O)(=O)c2cnc(SCC(=O)Nc3ccc4c(c3)OCCO4)[nH]c2=O)cc1
assigned_label: active

compound: COc1ccc(NS(=O)(=O)c2ccc(NS(=O)(=O)c3ccc4c(c3)OCCO4)cc2)cc1
assigned_label: active

compound: Cc1ccc(S(=O)(=O)Nc2cc(SCC(=O)O)c(O)c3ccccc23)cc1[N+](=O)[O-]
assigned_label: active

compound: N#Cc1ccccc1OCC1CN(Cc2cccc(C(F)(F)F)c2)C(=O)c2c(ccnc2-c2ccc(OCC(=O)O)cc2)O1 (stereo not drawn)
assigned_label: active

compound: Cc1ccc(-c2nnc(Nc3ccccc3)c3ccccc23)cc1S(=O)(=O)NCc1nc2ccccc2[nH]1
assigned_label: inactive

compound: CC(=O)Nc1ccc(S(=O)(=O)O)c2cc(S(=O)(=O)O)c(N=Nc3ccc(N=Nc4ccc(S(=O)(=O)O)cc4)c4ccc(S(=O)(=O)O)cc34)c(O)c12
assigned_label: active

compound: Cc1c(C2(c3cc(C(C)C)c(O)c(Br)c3C)OS(=O)(=O)c3ccccc32)cc(C(C)C)c(O)c1Br
assigned_label: active

compound: Cc1cc(C)cc(C(=O)N(C)[C@H](Cc2ccc(-c3ccccc3)cc2)C(=O)N[C@@H](Cc2c[nH]c3ccccc23)C(=O)O)c1
assigned_label: active

compound: O=C(OC1Cc2c(O)cc(O)cc2OC1c1cc(O)c(O)c(O)c1-c1c(C2Oc3cc(O)cc(O)c3CC2OC(=O)c2cc(O)c(O)c(O)c2)cc(O)c(O)c1O)c1cc(O)c(O)c(O)c1 (stereo not drawn)
assigned_label: active

compound: O=C1c2ccc(O)c(O)c2C(=O)c2c(O)ccc(O)c21
assigned_label: active

compound: O=C(O)COc1ccccc1C1Nc2ccccc2-c2nnc(SCc3ccc(Cl)cc3)nc2O1 (stereo not drawn)
assigned_label: active

compound: Cc1cccc(C)c1NS(=O)(=O)c1ccc(NS(=O)(=O)c2ccc3c(c2)OCCO3)cc1
assigned_label: active

compound: Cc1oc2c(cc(NS(=O)(=O)c3ccc(C(C)C)cc3)c3ccccc32)c1C(=O)OCc1ccccc1
assigned_label: inactive

compound: Nc1c(N=Nc2ccc([N+](=O)[O-])cc2)c(S(=O)(=O)O)cc2cc(S(=O)(=O)O)c(/C=C/c3ccccc3)c(O)c12
assigned_label: active

compound: Cc1cc(NC(=O)c2ccc(Cl)c(Cl)c2)ccc1-c1cc2ccccc2oc1=O
assigned_label: inactive

compound: O=C(O)c1ccccc1-c1c2cc(I)c(=O)c(I)c-2oc2c(I)c(O)c(I)cc12
assigned_label: active

compound: C=C1c2c(Cl)ccc(O)c2C(O)=C2C(=O)[C@]3(O)C(O)=C(C(N)=O)C(=O)[C@@H](N(C)C)[C@@H]3[C@@H](O)C12 (stereo partly drawn)
assigned_label: active

compound: CN(C)c1cc(CNCC(C)(C)C)c(O)c2c1C[C@H]1C[C@H]3[C@H](N(C)C)C(=O)C(C(N)=O)=C(O)[C@@]3(O)C(=O)C1=C2O
assigned_label: active

compound: O=c1c(O)cc(C2Oc3cc(O)cc(O)c3CC2O)cc2c(C3Oc4cc(O)cc(O)c4CC3O)cc(O)c(O)c12 (stereo not drawn)
assigned_label: active

compound: Clc1ccc(-c2nn3c(COc4cc(Cl)c(OCc5nnc6sc(-c7ccc(Cl)cc7)nn56)cc4Cl)nnc3s2)cc1
assigned_label: active

compound: COc1cc(O)c2c(=O)cc(-c3ccc(OC)c(-c4c(O)cc(O)c5c(=O)cc(-c6ccc(O)cc6)oc45)c3)oc2c1
assigned_label: active

compound: O=C(OC1Cc2c(O)cc(O)cc2OC1c1cc(O)c(O)c(O)c1)c1cc(O)c(O)c(O)c1 (stereo not drawn)
assigned_label: active
